Test system: Rattus norvegicus
Assay method text: Antiulcer activity in Wistar Rattus norvegicus (rat) assessed as change in pH of gastric secretions at 0.0289 mM/kg, po administered 1 hr prior to pylorous ligation measured after 19 hr by digital pH metric analysis relative to untreated control
Format: functional, Stomach
The compounds listed here are annotated with their Activity.
Property label: Activity (%)

[[record]]
compound = "COc1ccc2[nH]c([S+]([O-])Cc3ncc(C)c(OC)c3C)nc2c1 (centres undefined)"
value_unit = "%"
experimental_result = 50.9

[[record]]
compound = "[O-][S+](Cc1nc(OCC(F)(F)F)c2c(-c3ccc(Cl)cc3)csc2n1)c1nc2ccccc2[nH]1 (centres undefined)"
value_unit = "%"
experimental_result = 2.03

[[record]]
compound = "COc1nc(C[S+]([O-])c2nc3ccccc3[nH]2)nc2scc(-c3ccccc3)c12 (centres undefined)"
value_unit = "%"
experimental_result = 0.72

[[record]]
compound = "COc1ccc2[nH]c([S+]([O-])Cc3nc(OC)c4c(-c5ccccc5)csc4n3)nc2c1 (centres undefined)"
value_unit = "%"
experimental_result = 3.35

